molecular target: T1, rat MASP-2cf CCP1-CCP2-SP (rat, UniProt Q9JJS8 298-685); assay: SPR, target immobilised
T1 construct: range 298-685; Mw 42309 Da; also called rat MASP-2 catalytic fragment
T1 sequence (Q9JJS8 other isoform, or with tags, fused parts or gaps limits assumed, form in doubt): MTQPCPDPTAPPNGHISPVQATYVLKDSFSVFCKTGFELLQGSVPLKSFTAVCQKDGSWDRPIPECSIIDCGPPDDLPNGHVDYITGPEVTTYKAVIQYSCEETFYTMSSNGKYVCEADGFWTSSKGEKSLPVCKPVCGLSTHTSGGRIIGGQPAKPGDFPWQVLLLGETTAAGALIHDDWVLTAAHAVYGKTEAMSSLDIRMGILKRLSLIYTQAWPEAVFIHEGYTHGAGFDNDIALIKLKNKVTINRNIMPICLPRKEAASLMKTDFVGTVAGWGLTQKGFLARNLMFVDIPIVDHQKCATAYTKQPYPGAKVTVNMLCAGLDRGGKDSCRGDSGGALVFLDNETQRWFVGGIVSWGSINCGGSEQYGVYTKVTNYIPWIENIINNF
Where no end group is shown, it is not given here.
Under this convention, 1 denotes koff strictly below 0.0008 s⁻¹ and -1 denotes koff at or above 0.0008 s⁻¹.

1) EVO21a (designed binder, not fully specified; cysteine pairing not given here, Modified TFPI-D2 Kunitz domain; made as m1) KPDFCFLENDPGPCRAVKRRYFYNNQTKQCERFGYGGCLGNMNNFVTLEECKNICEDG ... -1
2) EVO2 (designed binder, not fully specified; ends and bridges not checked, Modified Kunitz domain TFPI-D2 of human TFPI-1; recombinant from E. coli, freed from a His6-S100A4 fusion by TEV protease; also called TFMI-2b) KPDFCFLEEDPGPCRAVKRRYFYNNQTKQCERFKYGGCLGNMNNFETLEECKNICEDG ... -1
3) EVO22b (designed binder, not fully specified; cysteine pairing not given here, Modified TFPI-D2 Kunitz domain; made as m1) KPDFCFLENDPGPCRALARRYFYNNQTKQCERFYYGGCLGNMNNFVTLEECKNICEDG ... 1
4) EVO21 (designed binder, not fully specified; ends and bridges not checked, Modified TFPI-D2 Kunitz domain; made as m1) KPDFCFLENDPGPCRALKRRYFYNNQTKQCERFGYGGCLGNMNNFVTLEECKNICEDG ... 1
5) EVO2b (designed binder, not fully specified; cysteine pairing not given here, Modified TFPI-D2 Kunitz domain; made as m1) KPDFCFLEEDPGPCRAVKRRYFYNNQTKQCERFGYGGCLGNMNNFETLEECKNICEDG ... -1
6) EVO212 (designed binder, not fully specified; ends and bridges not checked, Modified TFPI-D2 Kunitz domain; made as m1) KPDFCFLENDPGLCRALKRRYFYNNQTKQCERFGYGGCLGNMNNFVTLEECKNICEDG ... 1
7) EVO22a (designed binder, Modified TFPI-D2 Kunitz domain; made as m1) KPDFCFLENDPGPCRAAKRRYFYNNQTKQCERFYYGGCLGNMNNFVTLEECKNICEDG ... 1
8) EVO214 (designed binder, not fully specified; ends and bridges not checked, Modified TFPI-D2 Kunitz domain; made as m1) KPDFCFLENDPGPCRALKLRYFYNNQTKQCERFGYGGCLGNMNNFVTLEECKNICEDG ... 1
9) EVO24 (designed binder, not fully specified; cysteine pairing not given here, Modified TFPI-D2 Kunitz domain; made as m1) KPDFCFLENDPGPCRALKRRYFYNNQTKQCERFYYGGCLGNMNNFETLEECKNICEDG ... 1
10) EVO213 (designed binder, Modified TFPI-D2 Kunitz domain; made as m1) KPDFCFLENDPGPCRAAKRRYFYNNQTKQCERFGYGGCLGNMNNFVTLEECKNICEDG ... -1
11) EVO25 (designed binder, not fully specified; cysteine pairing not given here, Modified TFPI-D2 Kunitz domain; made as m1) KPDFCFLENDPGPCRALKRRYFYNNQTKQCERFYYGGCFGNMNNFETLEECKNICEDG ... -1
12) EVO222 (designed binder, not fully specified; cysteine pairing not given here, Modified TFPI-D2 Kunitz domain; made as m1) KPDFCFLENDPGLCRAAAVRYFYNNQTKQCERFYYGGCLGNMNNFVTLEECKNICEDG ... 1
13) EVO211 (designed binder, not fully specified; ends and bridges not checked, Modified TFPI-D2 Kunitz domain; made as m1) KPDFCFLENDPGWCRALKRRYFYNNQTKQCERFGYGGCLGNMNNFVTLEECKNICEDG ... -1
14) EVO224 (designed binder, not fully specified; cysteine pairing not given here, Modified TFPI-D2 Kunitz domain; made as m1) KPDFCFLENDPGVCRALAVRYFYNNQTKQCERFYYGGCLGNMNNFVTLEECKNICEDG ... 1
15) EVO2c (designed binder, not fully specified; cysteine pairing not given here, Modified TFPI-D2 Kunitz domain; made as m1) KPDFCFLEEDPGPCRAVKRRYFYNNQTKQCERFYYGGCLGNMNNFETLEECKNICEDG ... -1
16) EVO223 (designed binder, Modified TFPI-D2 Kunitz domain; made as m1) KPDFCFLENDPGPCRAAAVRYFYNNQTKQCERFYYGGCLGNMNNFVTLEECKNICEDG ... 1
17) EVO221 (designed binder, not fully specified; cysteine pairing not given here, Modified TFPI-D2 Kunitz domain; made as m1) KPDFCFLENDPGVCRAAAVRYFYNNQTKQCERFYYGGCLGNMNNFVTLEECKNICEDG ... 1
